Source listed as patent US11981658B2.

# system tested: EGFR Del19/T790M/C797S (Homo sapiens, UniProt P00533, C797S/DEL746-750/T790M)
# Sequence (P00533 with tags, fused parts or gaps DEL746-750/T790M/C797S): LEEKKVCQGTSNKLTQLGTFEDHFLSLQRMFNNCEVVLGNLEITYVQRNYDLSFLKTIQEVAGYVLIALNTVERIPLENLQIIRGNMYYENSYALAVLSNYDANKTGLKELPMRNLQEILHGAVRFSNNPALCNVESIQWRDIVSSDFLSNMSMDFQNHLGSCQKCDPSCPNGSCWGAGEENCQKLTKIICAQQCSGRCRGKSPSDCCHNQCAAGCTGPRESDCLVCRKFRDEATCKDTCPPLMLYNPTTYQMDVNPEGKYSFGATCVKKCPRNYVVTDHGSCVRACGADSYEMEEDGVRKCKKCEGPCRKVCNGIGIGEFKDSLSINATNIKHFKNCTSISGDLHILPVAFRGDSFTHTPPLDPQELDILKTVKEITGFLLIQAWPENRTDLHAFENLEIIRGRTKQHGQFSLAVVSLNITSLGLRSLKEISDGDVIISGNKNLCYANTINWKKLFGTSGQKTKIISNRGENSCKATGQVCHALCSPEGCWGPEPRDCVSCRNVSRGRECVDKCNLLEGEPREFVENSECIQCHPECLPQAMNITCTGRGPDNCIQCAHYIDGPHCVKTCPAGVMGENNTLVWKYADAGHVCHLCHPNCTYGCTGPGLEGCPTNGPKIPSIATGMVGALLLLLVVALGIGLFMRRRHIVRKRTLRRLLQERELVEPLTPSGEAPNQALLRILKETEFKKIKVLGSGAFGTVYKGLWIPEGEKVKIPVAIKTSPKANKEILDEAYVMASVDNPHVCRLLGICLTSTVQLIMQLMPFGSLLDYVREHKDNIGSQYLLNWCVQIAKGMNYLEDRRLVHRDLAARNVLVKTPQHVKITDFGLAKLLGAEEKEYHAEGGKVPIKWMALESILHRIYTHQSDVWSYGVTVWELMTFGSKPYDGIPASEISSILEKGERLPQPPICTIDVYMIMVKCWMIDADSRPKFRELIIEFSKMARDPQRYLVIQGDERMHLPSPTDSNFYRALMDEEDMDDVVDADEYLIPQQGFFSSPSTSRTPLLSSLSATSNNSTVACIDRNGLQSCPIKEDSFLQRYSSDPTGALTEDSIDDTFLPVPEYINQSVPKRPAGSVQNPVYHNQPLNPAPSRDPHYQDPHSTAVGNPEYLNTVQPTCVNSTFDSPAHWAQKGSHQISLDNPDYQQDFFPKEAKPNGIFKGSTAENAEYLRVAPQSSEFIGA
# protocol description: Biochemical EGFR kinase inhibition assay (Lance Ultra TR-FRET), triple mutant del19/T790M/C797S
# test context: Km ATP; read-out: IC50 Del19/T790M/C797S (nM), Km ATP
Task for the reader: assign each of the following compounds its reported IC50.
One number for each entry, in nM.

Worked cases, IC50 given:
compound | readout number
CC1(O)CCN(c2cc(Nc3ccnc(-c4cnn(S(=O)(=O)C5CC5)c4)n3)ncc2C#CC2CCO[C@H]2C(F)(F)F)CC1 (stereo partly drawn) | 1.5
O=S(=O)(C1CC1)n1cc(-c2nccc(Nc3cc(N4[C@@H]5CC[C@H]4C[C@H](CO)C5)c(C#Cc4cnn(C(F)(F)F)c4)cn3)n2)cn1 | 18.9
O=S(=O)(C1CC1)n1cc(-c2nccc(Nc3cc(N[C@H]4CC[C@@H](O)CC4)c(C#Cc4cnn(CC(F)(F)F)c4)cn3)n2)cn1 | 1
CC1(CO)CCN(c2cc(Nc3ccnc(-c4cnn(S(=O)(=O)C5CC5)c4)n3)ncc2C#CC2CCCO2)CC1 (stereo not drawn) | 0.1
CN1CCC(C#Cc2cnc(Nc3ccnc(-c4cnn(S(=O)(=O)C5CC5)c4)n3)cc2N2CCC3(CCO3)CC2)C1 (stereo not drawn) | 0.2

Continue with the compound presented below.
Which IC50 value is on record for "C[C@]1(O)CCCN(c2cc(Nc3ccnc(-c4cnn(S(=O)(=O)C5CC5)c4)n3)ncc2C#Cc2cnn(C(F)(F)F)c2)C1" ?
1

----------
# system tested: EGFR L858R/T790M/C797S (Homo sapiens, UniProt P00533, C797S/L858R/T790M)
# Sequence (P00533 25-1210 T790M/C797S/L858R): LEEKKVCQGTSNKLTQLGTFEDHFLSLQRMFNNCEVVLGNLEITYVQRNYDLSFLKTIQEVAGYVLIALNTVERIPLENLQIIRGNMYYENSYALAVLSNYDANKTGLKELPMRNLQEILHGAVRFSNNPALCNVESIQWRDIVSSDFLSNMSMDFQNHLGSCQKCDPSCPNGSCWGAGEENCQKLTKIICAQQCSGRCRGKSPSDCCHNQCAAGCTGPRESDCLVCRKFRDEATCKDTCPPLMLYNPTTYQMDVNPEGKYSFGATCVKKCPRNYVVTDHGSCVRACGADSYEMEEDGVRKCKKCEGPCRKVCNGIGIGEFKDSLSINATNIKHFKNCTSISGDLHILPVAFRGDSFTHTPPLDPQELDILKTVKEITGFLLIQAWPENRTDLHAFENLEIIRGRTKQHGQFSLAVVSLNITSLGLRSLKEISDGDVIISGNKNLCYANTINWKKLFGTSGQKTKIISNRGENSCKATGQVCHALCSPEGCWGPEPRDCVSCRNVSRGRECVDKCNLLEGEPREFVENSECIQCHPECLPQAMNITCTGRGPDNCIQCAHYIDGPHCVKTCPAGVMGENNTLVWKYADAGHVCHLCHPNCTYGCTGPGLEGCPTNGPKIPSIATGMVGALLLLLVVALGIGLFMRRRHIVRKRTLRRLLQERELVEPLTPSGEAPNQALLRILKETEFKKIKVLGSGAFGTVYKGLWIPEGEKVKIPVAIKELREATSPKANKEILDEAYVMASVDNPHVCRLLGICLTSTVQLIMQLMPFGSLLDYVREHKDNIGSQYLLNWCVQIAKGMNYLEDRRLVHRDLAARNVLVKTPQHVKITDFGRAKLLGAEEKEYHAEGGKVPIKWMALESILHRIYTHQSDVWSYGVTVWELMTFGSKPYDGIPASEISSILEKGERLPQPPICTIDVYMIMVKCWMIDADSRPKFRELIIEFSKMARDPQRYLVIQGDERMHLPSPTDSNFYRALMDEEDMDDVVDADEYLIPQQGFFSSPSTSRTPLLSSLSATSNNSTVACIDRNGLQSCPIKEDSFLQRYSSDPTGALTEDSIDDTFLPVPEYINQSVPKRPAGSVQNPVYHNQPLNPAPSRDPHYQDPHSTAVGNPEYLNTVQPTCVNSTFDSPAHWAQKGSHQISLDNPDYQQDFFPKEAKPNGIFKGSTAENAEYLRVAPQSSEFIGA
# protocol description: Biochemical EGFR kinase inhibition assay (Lance Ultra TR-FRET), triple mutant L858R/T790M/C797S
# test context: IC50 L858R/T790M/C797S (nM), 100 μM ATP
What IC50 was measured for each of the following?
Answers are plain numbers, in nM.

Provide the reported IC50 of each entry below, same order.
1. O=C(c1ccc(C#Cc2cnc(Nc3ccnc(-c4cnn(S(=O)(=O)C5CC5)c4)n3)cc2N2CCC[C@H](O)C2)cc1)N1CCC(O)CC1
2. Cn1cc(C#Cc2cnc(Nc3ccnc(-c4cnn(S(=O)(=O)C5CC5)c4)n3)cc2N2CCC(NCC3CC3)CC2)cn1

1. 0.4
2. 2.6

----------
# system tested: EGFR L858R/C797S (Homo sapiens, UniProt P00533, C797S/L858R)
# Sequence (P00533 25-1210 C797S/L858R): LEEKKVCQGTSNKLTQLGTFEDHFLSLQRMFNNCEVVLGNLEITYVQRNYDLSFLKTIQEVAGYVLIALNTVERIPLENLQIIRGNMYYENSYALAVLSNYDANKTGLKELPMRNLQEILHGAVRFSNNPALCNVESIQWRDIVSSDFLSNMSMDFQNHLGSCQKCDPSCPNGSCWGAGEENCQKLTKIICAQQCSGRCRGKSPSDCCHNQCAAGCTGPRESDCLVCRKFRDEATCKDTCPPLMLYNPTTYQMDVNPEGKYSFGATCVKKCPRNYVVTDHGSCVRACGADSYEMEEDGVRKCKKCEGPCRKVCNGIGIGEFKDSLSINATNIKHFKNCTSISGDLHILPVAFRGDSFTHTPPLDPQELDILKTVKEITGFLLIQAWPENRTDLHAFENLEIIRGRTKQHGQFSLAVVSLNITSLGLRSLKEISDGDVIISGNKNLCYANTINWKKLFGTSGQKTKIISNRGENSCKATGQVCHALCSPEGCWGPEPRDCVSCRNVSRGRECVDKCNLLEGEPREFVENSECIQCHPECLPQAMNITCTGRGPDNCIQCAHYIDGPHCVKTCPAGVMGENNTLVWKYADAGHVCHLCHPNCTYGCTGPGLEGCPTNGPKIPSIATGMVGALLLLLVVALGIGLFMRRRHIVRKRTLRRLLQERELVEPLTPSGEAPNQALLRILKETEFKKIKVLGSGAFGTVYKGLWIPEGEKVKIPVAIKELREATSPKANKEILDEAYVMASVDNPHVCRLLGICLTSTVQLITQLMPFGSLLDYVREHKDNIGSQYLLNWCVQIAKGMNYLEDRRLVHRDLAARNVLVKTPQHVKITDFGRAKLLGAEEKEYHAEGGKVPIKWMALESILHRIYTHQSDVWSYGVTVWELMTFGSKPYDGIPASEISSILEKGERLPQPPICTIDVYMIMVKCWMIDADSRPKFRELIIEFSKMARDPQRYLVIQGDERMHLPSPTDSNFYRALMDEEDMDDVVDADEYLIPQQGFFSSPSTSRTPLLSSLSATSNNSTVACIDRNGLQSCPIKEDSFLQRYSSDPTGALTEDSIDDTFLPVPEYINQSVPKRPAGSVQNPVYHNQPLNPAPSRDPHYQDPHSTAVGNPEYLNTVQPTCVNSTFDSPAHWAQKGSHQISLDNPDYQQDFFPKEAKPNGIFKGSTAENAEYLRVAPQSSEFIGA
# protocol description: Biochemical EGFR kinase inhibition assay (Lance Ultra TR-FRET), double mutant L858R/C797S
# test context: IC50 L858R/C797S (nM), 100 μM ATP
Structures can show the parent of a compound that is named as a salt.
reported endpoint: IC50 (nM)
One number for each entry, in nM.

Examples with their reported IC50 follow.
compound | unit of measure | readout number
CN(C)CCC1CCN(c2cc(Nc3ccnc(-c4cnn(S(=O)(=O)C5CC5)c4)n3)ncc2C#Cc2cnn(C)c2)CC1 [Example 294, formate] | nM | 1.6
Cn1cc(C#Cc2cnc(Nc3ccnc(-c4cnn(S(=O)(=O)C5CC5)c4)n3)cc2N2CCC(C(C)(C)CO)CC2)cn1 [Example 14] | nM | 41
CC1(O)CCN(c2cc(Nc3ccnc(-c4cnn(S(=O)(=O)C5CC5)c4)n3)ncc2C#CC2(C)CC2)CC1 [Example 404] | nM | 55.6

Would you kindly share the measured IC50 for O=S(=O)(C1CC1)n1cc(-c2nccc(Nc3cc(N4CCC[C@H](O)C4)c(C#Cc4ccsc4)cn3)n2)cn1 [Example 228] ?
494

----------
# system tested: EGFR L858R/C797S (Homo sapiens, UniProt P00533, C797S/L858R)
# protocol description: Biochemical EGFR kinase inhibition assay (Lance Ultra TR-FRET), double mutant L858R/C797S
# test context: ATP at Km; read-out: IC50 L858R/C797S (nM), Km ATP
Please respond with 1 (yes) when measured IC50 is strictly beneath 2 nM, and with 0 (no) in all other cases.

Record "CC1(CO)CCN(c2cc(Nc3ccnc(-c4cnn(S(=O)(=O)C5CC5)c4)n3)ncc2C#CC2CCOCC2)CC1" : is its IC50 strictly below 2 nM?
1 (yes)

Try "O=S(=O)(C1CC1)n1cc(-c2nccc(Nc3cc(N[C@H]4CC[C@@H](O)CC4)c(C#Cc4ccc(CN5CCOCC5)cc4)cn3)n2)cn1" next.
0 (no)

Likewise for "CC1(CO)CCN(c2cc(Nc3ccnc(-c4cnn(S(=O)(=O)C5CC5)c4)n3)ncc2C#Cc2ccc(C(=O)N3CCOCC3)cc2)CC1" ?
1 (yes)

----------
# system tested: EGFR wildtype (WT) (Homo sapiens)
# Sequence (P00533 25-1210): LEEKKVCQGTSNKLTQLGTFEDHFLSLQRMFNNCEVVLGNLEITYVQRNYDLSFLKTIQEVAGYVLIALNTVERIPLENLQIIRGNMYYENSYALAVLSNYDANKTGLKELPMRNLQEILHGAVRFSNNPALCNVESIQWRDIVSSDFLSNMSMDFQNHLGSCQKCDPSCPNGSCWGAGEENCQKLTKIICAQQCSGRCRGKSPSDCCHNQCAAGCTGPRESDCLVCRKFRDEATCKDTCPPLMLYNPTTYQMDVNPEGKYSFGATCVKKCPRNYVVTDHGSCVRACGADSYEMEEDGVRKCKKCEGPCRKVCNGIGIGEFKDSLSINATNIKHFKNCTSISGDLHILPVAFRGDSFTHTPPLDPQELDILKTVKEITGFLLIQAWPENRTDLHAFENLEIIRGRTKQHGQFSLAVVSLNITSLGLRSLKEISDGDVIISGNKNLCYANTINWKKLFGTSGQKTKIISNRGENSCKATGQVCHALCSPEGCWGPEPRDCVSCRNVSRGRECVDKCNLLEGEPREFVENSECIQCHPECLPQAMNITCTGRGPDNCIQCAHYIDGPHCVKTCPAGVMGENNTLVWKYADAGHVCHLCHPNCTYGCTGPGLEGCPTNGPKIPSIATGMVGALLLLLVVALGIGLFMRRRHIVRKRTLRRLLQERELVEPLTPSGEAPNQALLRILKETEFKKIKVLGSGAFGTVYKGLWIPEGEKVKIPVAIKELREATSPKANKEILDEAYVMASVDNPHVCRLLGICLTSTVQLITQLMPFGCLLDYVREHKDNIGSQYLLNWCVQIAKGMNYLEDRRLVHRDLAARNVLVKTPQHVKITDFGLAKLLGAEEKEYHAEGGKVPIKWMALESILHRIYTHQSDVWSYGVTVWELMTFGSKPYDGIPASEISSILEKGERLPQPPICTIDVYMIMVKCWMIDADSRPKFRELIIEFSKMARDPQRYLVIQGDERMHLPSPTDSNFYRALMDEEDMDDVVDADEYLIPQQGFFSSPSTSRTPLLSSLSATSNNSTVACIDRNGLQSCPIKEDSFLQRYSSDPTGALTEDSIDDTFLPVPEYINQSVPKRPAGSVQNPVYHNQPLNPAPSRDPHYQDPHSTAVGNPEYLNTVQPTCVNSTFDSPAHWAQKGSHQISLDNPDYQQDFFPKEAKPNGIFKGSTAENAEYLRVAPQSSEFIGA
# protocol description: Biochemical EGFR kinase inhibition assay (Lance Ultra TR-FRET), wildtype
# test context: IC50 WT (nM), 100 μM ATP
reported endpoint: IC50

Example results:
compound | IC50
CC1(O)CCN(c2cc(Nc3ccnc(-c4cnn(S(=O)(=O)C5CC5)c4)n3)ncc2C#CC2(C)CC2)CC1 | 9350 nM
CC1(CO)CCN(c2cc(Nc3ccnc(-c4cnn(S(=O)(=O)C5CC5)c4)n3)ncc2C#Cc2cnn(CC(F)(F)F)c2)CC1 | 651 nM
CC1(CO)CCN(c2cc(Nc3ccnc(-c4cnn(S(=O)(=O)C5CC5)c4)n3)ncc2C#CC2(O)CCC2)CC1 | 7620 nM
O=S(=O)(C1CC1)n1cc(-c2nccc(Nc3cc(N[C@H]4CC[C@@H](O)CC4)c(C#CC4(O)CCCCC4)cn3)n2)cn1 | > 10000 nM
CC(=O)C1CCN(c2cc(Nc3ccnc(-c4cnn(S(=O)(=O)C5CC5)c4)n3)ncc2C#Cc2cnn(C(F)(F)F)c2)CC1 | > 10000 nM

Provide the reported IC50 of each entry below, same order.
1. Cn1cc(C#Cc2cnc(Nc3ccnc(-c4cnn(S(=O)(=O)C5CC5)c4)n3)cc2N2CCC(F)CC2)cn1
2. CN(C)CCNC1CCN(c2cc(Nc3ccnc(-c4cnn(S(=O)(=O)C5CC5)c4)n3)ncc2C#Cc2cnn(C)c2)CC1
3. CC1(CO)CCN(c2cc(Nc3ccnc(-c4cnn(S(=O)(=O)C5CC5)c4)n3)ncc2C#CC2CCS(=O)(=O)C2)CC1 (stereo not shown)
4. Cn1cc(C#Cc2cnc(Nc3ccnc(-c4cnn(S(=O)(=O)C5CC5)c4)n3)cc2N2CCC(OC(F)(F)F)CC2)cn1

["> 10000 nM", "3840 nM", "> 10000 nM", "> 10000 nM"]

Provide IC50 values for the following items, in order.
1. COC1CCN(c2cc(Nc3ccnc(-c4cnn(S(=O)(=O)C5CC5)c4)n3)ncc2C#Cc2cnn(C3CCOCC3)c2)CC1
2. O=S(=O)(C1CC1)n1cc(-c2nccc(Nc3cc(N[C@H]4CC[C@@H](O)CC4)c(C#Cc4cnn(C(F)(F)F)c4)cn3)n2)cn1
3. Cn1cc(C#Cc2cnc(Nc3ccnc(-c4cnn(S(=O)(=O)C5CC5)c4)n3)cc2N2CC3(CCNCC3)C2)cn1
4. O=S(=O)(C1CC1)n1cc(-c2nccc(Nc3cc(N4CCC(O)CC4)c(C#Cc4cnn(C5CC5(F)F)c4)cn3)n2)cn1 (stereo not shown)

1. > 10000 nM
2. > 10000 nM
3. > 10000 nM
4. > 10000 nM

----------
Consider the following compounds; for each one, report its IC50.
# system tested: EGFR L858R/T790M/C797S (Homo sapiens, UniProt P00533, C797S/L858R/T790M)
# protocol description: Biochemical EGFR kinase inhibition assay (Lance Ultra TR-FRET), triple mutant L858R/T790M/C797S
# test context: Km ATP; read-out: IC50 L858R/T790M/C797S (nM), Km ATP
One number for each entry, in nM.

Please state, for each entry, its recorded IC50.
1. O=S(=O)(C1CC1)n1cc(-c2nccc(Nc3cc(N4[C@@H]5CC[C@H]4C[C@H](CO)C5)c(C#Cc4cnn(C(F)(F)F)c4)cn3)n2)cn1
2. O=S(=O)(C1CC1)n1cc(-c2nccc(Nc3cc(N4CCC(F)(CO)CC4)c(C#Cc4cnn(C(F)(F)F)c4)cn3)n2)cn1
3. O=S(=O)(C1CC1)n1cc(-c2nccc(Nc3cc(NC4CCC(O)CC4)c(C#CC4CCCO4)cn3)n2)cn1 (stereo not shown)
4. O=C(c1ccc(C#Cc2cnc(Nc3ccnc(-c4cnn(S(=O)(=O)C5CC5)c4)n3)cc2N[C@H]2CC[C@@H](CO)CC2)cc1)N1CCC(O)CC1

7.8
0.2
3.4
0.5

----------
# system tested: EGFR L858R/T790M/C797S (Homo sapiens, UniProt P00533, C797S/L858R/T790M)
# protocol description: Biochemical EGFR kinase inhibition assay (Lance Ultra TR-FRET), triple mutant L858R/T790M/C797S
# test context: IC50 L858R/T790M/C797S (nM), 100 μM ATP
Lab note - cut at 1 nM for IC50: class 1 if strictly below, class 0 if not.

Example entries and their recorded answers appear below.
smiles str | label class
CN(C)CCC1CCN(c2cc(Nc3ccnc(-c4cnn(S(=O)(=O)C5CC5)c4)n3)ncc2C#Cc2cnn(CC(F)F)c2)CC1 | class 1
O=S(=O)(C1CC1)n1cc(-c2nccc(Nc3cc(N[C@H]4CCC[C@H](O)C4)c(C#Cc4cnn(CCF)c4)cn3)n2)cn1 | class 0
Cn1cc(C#Cc2cnc(Nc3ccnc(-c4cnn(S(=O)(=O)C5CC5)c4)n3)cc2N2CCC(F)(CO)CC2)cn1 | class 0

State whether 1 nM exceeds IC50 recorded for "CN(C)CCNC1CCN(c2cc(Nc3ccnc(-c4cnn(S(=O)(=O)C5CC5)c4)n3)ncc2C#Cc2cnn(C)c2)CC1" .
class 1

Same question, "CN(C)CC1(O)CCN(c2cc(Nc3ccnc(-c4cnn(S(=O)(=O)C5CC5)c4)n3)ncc2C#Cc2cnn(C3CC3)c2)CC1" this time
class 0

Next up: "CN(C)CCn1cc(C#Cc2cnc(Nc3ccnc(-c4cnn(S(=O)(=O)C5CC5)c4)n3)cc2N2CCC(C)(CO)CC2)cn1"
class 1
